assay: Caspase-3/7 induction in CHO-K1 cells by small molecules, qHTS cell viability counter screen (AID 1346979); details: CellTiter-Fluor fluorescence, 17 h; series mostly up to 92.4 µM; also: nearly all actives have a fitted effect of over 35% in size
Inconclusive results are not listed. The source made the active and inactive calls. Calls follow the shape of the dose curve; as a rule, active = well fitted cell-killing curve with a large enough effect in the repeat runs; inconclusive = weak or mixed curves, or effect the other way; inactive = no such curve, though single readings can be large or run the other way.
Would you mind answering with one of these outcomes? active, inactive

molecule: COC(=O)/C=C/c1ccccc1
cat: inactive
//
molecule: CCC[C@H](N[C@@H](C)C(=O)N1[C@H](C(=O)O)C[C@@H]2CCCC[C@@H]21)C(=O)OCC
cat: inactive
//
molecule: CC(C)(C)c1ccccc1
cat: inactive

Which outcome did this test record for the molecule NC(N)=NC(=O)Cc1c(Cl)cccc1Cl ? inactive

Next molecule: CC1COc2c(N3CCN(C)CC3)c(F)cc3c(=O)c(C(=O)O)cn1c23 (stereo not drawn) inactive

* * *

assay: qHTS assay to test for compound auto fluorescence at 590 nm (red) in HEK293 cell free culture (AID 720683); details: cell-free medium autofluorescence, Ex540/Em590 red; series mostly up to 91.3 µM
Calls of active or inactive are those of the source. The call rests on the fitted dose curve; in most records, active means well fitted curve in the direction sought with a large enough effect in the repeat runs; inconclusive means weak or mixed curves; inactive means flat fitted curve, though single readings scatter.
endpoint label: fluorescence, % of fluorescent control

Some molecules with known fluorescence, % of fluorescent control results, for comparison:
molecule: CCCC(=O)c1ccccc1
fluorescence, % of fluorescent control: inactive

molecule: CC(C)CCOCc1ccccc1
fluorescence, % of fluorescent control: inactive

molecule: CO[Si](OC)(OC)c1ccccc1
fluorescence, % of fluorescent control: inactive

molecule: O=Nc1ccc(Nc2ccccc2)cc1
fluorescence, % of fluorescent control: inactive

molecule: CCn1c2ccccc2c2cc(N)ccc21
fluorescence, % of fluorescent control: inactive

Entry CC(C)(c1ccccc1)c1ccc(Nc2ccc(C(C)(C)c3ccccc3)cc2)cc1 : reported fluorescence, % of fluorescent control = ? inactive

Next molecule: BrC1CCC(Br)C(Br)CCC(Br)C(Br)CCC1Br (configuration not stated) inactive

Next molecule: CC(=O)OCCOCCOCCOC(C)=O inactive

Next molecule: CC[C@]1(O)C[C@@H]2CN(CCc3c([nH]c4ccccc34)[C@@](C(=O)OC)(c3cc4c(cc3OC)N(C)[C@H]3[C@@](O)(C(=O)OC)[C@H](OC(C)=O)[C@]5(CC)C=CCN6CC[C@]43[C@@H]65)C2)C1 inactive

Next molecule: CC(N)=O inactive

Next molecule: CCC[C@H](N[C@@H](C)C(=O)N1[C@H](C(=O)O)C[C@@H]2CCCC[C@@H]21)C(=O)OCC inactive

Next molecule: NC(=Nc1ccccc1)Nc1ccccc1 inactive

Next molecule: CN(C)c1ccc(C(=C2C=CC(=[N+](C)C)C=C2)c2ccccc2)cc1 inactive

Next molecule: CNCCC(Oc1ccc(C(F)(F)F)cc1)c1ccccc1 (configuration not stated) inactive

Next molecule: O=C(OCc1ccccc1)c1ccc(O)cc1 inactive

Next molecule: Cc1cc(Cc2cc(C)cc(C(C)(C)C)c2O)c(O)c(C(C)(C)C)c1 inactive

Next molecule: Cc1cc(OCCOCC[N+](C)(C)Cc2ccccc2)ccc1C(C)(C)CC(C)(C)C inactive

Next molecule: C=CC(=O)OCCCCCCCC inactive

Next molecule: CCN(CC)C(=S)SSC(=S)N(CC)CC inactive

Next molecule: Nc1nc2ccccc2[nH]1 inactive

* * *

assay: qHTS assay to identify small molecule agonists of the sonic hedgehog signaling (Shh) pathway - cell viability counter screen (AID 1259366); settings: NIH/3T3 Gli1-Luc viability, CellTiter-Fluor, 24 h; series mostly up to 92.4 µM; also: nearly all actives have a fitted effect of over 50% in size
Records with an inconclusive call do not appear. The source made the active and inactive calls. Calls come from the whole dose curve; as a rule, active = well fitted cell-killing curve with a large enough effect in the repeat runs; inconclusive = weak or mixed curves, or effect the other way; inactive = flat fitted curve, though single readings scatter.
Would you mind answering with one of these outcomes? active, inactive

molecule: C=CS(=O)(=O)O
cat: inactive

Which outcome did this test record for the molecule CN(C)c1ccc(C(=C2C=CC(=[N+](C)C)C=C2)c2ccccc2)cc1 ? active

Next molecule: NC(=Nc1ccccc1)Nc1ccccc1 inactive

Next molecule: O=C(O)c1cc(Cl)cc(Cl)c1 inactive
